The origin of these recorded values is PubChem BioAssay.

ASSAY INFO: differential killing of epithelial or mesenchymal cells, primary screen, imaging, PC-3E GFP, TEM4-18 mCherry, co-culture (AID 1345086);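 note: cells exposed to compound for 72 h before imaging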
RECORDED CONDITIONS: imaging cell counts, measured here: epithelial PC-3E GFP cell survival, at 1 µM
OBSERVABLE: normalised cell number
Respond numerically, and do not add a unit to the figure.

Previously resolved entries follow.
C=CC(C1=CC(=O)C(OC)=CC1=O)c1ccc(OC)cc1 (stereo not given) yielded normalised cell number of 1.1

O=C(O)c1cc(=O)c2cccc(O)c2[nH]1 yielded normalised cell number of 0.88

CC1=C(/C=C/C(C)=C/C=C/C(C)=C/CO)C(C)(C)CCC1 yielded normalised cell number of 0.9

NC(=O)CCCCC1CCSS1 (stereo not given) yielded normalised cell number of 0.81

CC12CCC3C(CC3(C)C)C(C)(CCC1=O)O2 (stereo not given) yielded normalised cell number of 0.97

---
CC(C)=CCc1c(O)cc2oc(C)cc(=O)c2c1O yielded normalised cell number of 1.18

Cn1c(=O)c2c(ncn2CC2OCCO2)n(C)c1=O yielded normalised cell number of 1.16

COc1ccc2c3c1O[C@H]1C[C@@H](O)C=C[C@@]31CCN(C)C2 yielded normalised cell number of 1

C=CC1=C(C(=O)O)N2C(=O)[C@@H](NC(=O)/C(=N\O)c3csc(N)n3)[C@H]2SC1 (stereo in doubt) yielded normalised cell number of 0.89

NC(=O)c1cc[n+](CC2=C(C(=O)[O-])N3C(=O)[C@@H](NC(=O)Cc4cccs4)[C@H]3SC2)cc1 yielded normalised cell number of 1.26

S=c1[nH]c2ccccc2s1 yielded normalised cell number of 1.13

CN(C(=O)CN(CCO)CC(=O)N(C)C(C)(C)Cc1ccccc1)C(C)(C)Cc1ccccc1 yielded normalised cell number of 1.13

CCOC(=O)[C@H](CCc1ccccc1)N[C@H](C)C(=O)N1C2CCCCC2C[C@H]1C(=O)O (stereo not given in full) yielded normalised cell number of 1.03

C[N+](C)(C)CCO yielded normalised cell number of 1.16

CC(=O)Oc1cc(-c2coc3cc(OC(C)=O)c(OC(C)=O)c(OC(C)=O)c3c2=O)cc(OC(C)=O)c1OC(C)=O yielded normalised cell number of 1.23

###

Some compounds, each annotated with its measured viability decrease (inhibition).
ASSAY INFO: decreased DLD-1 cellular survival, CellTiter-Glo luminescent readout, NPC compound collection, primary HTS (AID 1117346)
RECORDED CONDITIONS: DLD-1 viability, CellTiter-Glo luminescence; at 20 µM (top of the series)
Kindly answer with a numeric value in %, unit omitted.

Previously resolved entries follow.
OC1C(O)C(O)C(O)C(O)C1O (centres undefined) yielded viability decrease (inhibition) of 0.6

Cc1cccc(C)c1NC(=O)CN1CCN(CCCC(c2ccc(F)cc2)c2ccc(F)cc2)CC1 yielded viability decrease (inhibition) of 102

C#C[C@]1(O)CC[C@H]2[C@@H]3CCc4cc(OC5CCCC5)ccc4[C@H]3CC[C@@]21C yielded viability decrease (inhibition) of 105

Cc1c(-c2ccc(O)cc2)n(Cc2ccc(OCCN3CCCCCC3)cc2)c2ccc(O)cc12 yielded viability decrease (inhibition) of 101

CN(C)C(=N)N=C(N)N yielded viability decrease (inhibition) of -1.55

O=c1[nH]c(=O)c2ccccc2o1 yielded viability decrease (inhibition) of -5.5

C#CCN(C)CCCOc1ccc(Cl)cc1Cl yielded viability decrease (inhibition) of 13.7

CCOc1ccc(NC(=O)CC(C)O)cc1 (centres undefined) yielded viability decrease (inhibition) of -15.7

---
CCOc1ccccc1OCCN[C@H](C)Cc1ccc(OC)c(S(N)(=O)=O)c1 yielded viability decrease (inhibition) of 5.8
